# Tested on: UACC-62 melanoma
# experimental.protocol: NCI-60 one-dose screen, 48 h (100 = growth as untreated, 0 = no growth, -100 = all killed)
# test.context: 10 µM unless noted
The panel holds about 83,000 compounds, 20% with a hit somewhere; the sample as a whole holds those more often.
In plain terms, low growth, meaning strictly below 90%, gives Satisfied, and everything else gives Not satisfied.

molecule | assigned.category
N=c1c2c(=O)n3c(nc2nc2sc4ccc(Cl)cc4n12)-c1ccccc1Sc1ccccc1-3 | Satisfied
CC(=O)N1N=C(c2ccc(Cl)cc2)CC1c1cn(-c2ccccc2)nc1-c1ccc([N+](=O)[O-])cc1 (stereo not given) | Satisfied
COc1cccc(-c2cc(-c3cc4ccccc4oc3=O)nc(N)n2)c1 | Not satisfied

Does the reported growth of Clc1ccc(N/N=C/c2ccccn2)nc1 stay below 90%?
Satisfied

Again, but for CCN(CC)CCCNc1c2ccc(Cl)cc2nc2ccc(OC)cc12
Satisfied

And what about the molecule CC[N+](C)(C)N ?
Not satisfied

Same thing, different molecule: CC(=O)C(CO)C(=O)Nc1ccccc1 (stereo not given)
Not satisfied

Now this one: CCCCn1c(Cc2ccc(OC)cc2)nc2cc(OC)c(OC)cc2c1=O
Satisfied

Also, COC(=O)C(C)[C@H]1CC[C@@H]2[C@]1(C)CC=C1[C@]23C=C[C@]2(C[C@@H](OC(C)=O)CC[C@]12C)C(C(=O)OC)C3C(=O)OC (stereo not given in full) please.
Satisfied

###

# Tested on: A549/ATCC NSCLC
# experimental.protocol: NCI-60 one-dose screen, 48 h
# test.context: 10 µM unless noted
About 83,000 compounds went through this panel and 20% of them were active in at least one assay; those are over-represented in the sample as a whole. Active and inactive are the calls of the source. How the source made its calls: active means growth percent below 10; inactive means the rest.
I would appreciate it if you answered using one of these outcomes: T for active, F for inactive

Here's what some known entries look like.
compound | assigned.category
CCCCCN1CCN(C(CC(=O)c2ccccc2)C(=O)c2ccccc2)CC1 (stereo not drawn) | F
COc1cc(/C(=C2/O[C@@H]([C@H]3COC(C)(C)O3)[C@H]3OC(C)(C)O[C@@H]23)c2ccc3c(c2)OCO3)cc(OC)c1OC | T
CC(=O)Nc1nc(C)c(C(=O)N/N=C/c2cccs2)s1 | F

Which result was noted for this compound in the test: CC(=O)N1CCN(CCNC(=O)n2cc(-c3ccncc3)c(-c3cc(O)cc(Cl)c3)n2)CC1
F

What do you get for Cc1cc2c(-c3nc4ccccc4[nH]3)c(O)c(O)cc2c(O)c1-c1c(C)cc2c(-c3nc4ccccc4[nH]3)c(O)c(O)cc2c1O ?
T

Also need COC(=O)/C=C1/CCCCC1(C)C(=O)OC (stereo not drawn) , thanks.
F

Queued: COc1ccc(C2CC(=O)c3c(O)cc(OC4OC(COC5OC(C)C(O)C(O)C5O)C(O)C(O)C4O)cc3O2)cc1O (stereo not drawn)
F

Note, next up: O=C(OCC1CC2(Cl)C(Cl)=C(Cl)C1(Cl)C2(Cl)Cl)C1C(C(=O)OCC2CC3(Cl)C(Cl)=C(Cl)C2(Cl)C3(Cl)Cl)C2(Cl)C(Cl)=C(Cl)C1(Cl)C2(Cl)Cl (stereo not drawn)
F

###

# Test system: SK-MEL-2 melanoma
# experimental.protocol: NCI-60 one-dose screen, 48 h
# test.context: 10 µM unless noted
This is part of a sample that, as a whole, favours compounds with a hit. Of some 83,000 tested, about 20% had one in any assay. Active and inactive are the calls of the source. Rule for the calls: active = growth percent below 10; inactive = the rest.
Assign a class; possible classes are 1 (yes) (active), 0 (no) (inactive)

Recorded results for 2 compounds are shown here.
compound | assigned.category
COc1cc(N2C(=O)C=CC2=O)ccc1N1C(=O)C=CC1=O | 0 (no)
CCCCCCN(CCCCCC)CCC(=O)Nc1ccc(S(=O)(=O)c2ccc(NC(=O)CCN(CCCCCC)CCCCCC)cc2)cc1 | 0 (no)

Identify the outcome logged in this assay for the compound shown: C=CC1CN2CCC1CC2C(O)c1ccnc2ccc(OC)cc12 (centres undefined)
1 (yes)

Next entry: CCCC(=O)NNc1[nH]c(-c2ccc(OC)cc2)cc1C(=O)OCC
0 (no)

Queued: COc1cc2c(c3c1c(=O)c1cccc(F)c1n3C)C=CC(C)(C)O2
0 (no)

Follow-up entry: CSC1=Nc2c(c(C)c(-c3ccccc3)n2CCCCl)C2=NC(=O)CN12
0 (no)
